- target: STK16 (human) (UniProt O75716)
- Sequence (O75716 whole entry, looked up): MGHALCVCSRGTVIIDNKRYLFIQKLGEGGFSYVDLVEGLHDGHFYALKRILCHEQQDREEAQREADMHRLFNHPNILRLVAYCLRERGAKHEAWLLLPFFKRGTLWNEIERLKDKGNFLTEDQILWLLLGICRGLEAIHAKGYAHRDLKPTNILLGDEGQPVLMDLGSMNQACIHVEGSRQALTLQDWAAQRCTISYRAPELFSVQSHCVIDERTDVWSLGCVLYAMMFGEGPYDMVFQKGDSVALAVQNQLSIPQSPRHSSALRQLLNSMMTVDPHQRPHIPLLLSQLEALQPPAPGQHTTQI
- assayProtocol: radiometric filter-binding kinase assay
- experimentalContext: compound 1.0 µM
valueKind: residual activity (%)
Return type: number; implicit unit %.

CCCCCc1ccc(/C=C/[C@H](O)[C@@H](CO)NC)cc1 :: 98
COc1ccc(N(C(=O)Nc2c(C)cccc2C)c2cc(Nc3ccc(N4CCN(C)CC4)cc3)ncn2)c(OC)c1 :: 106
C=C1C(=O)OC2C1CC/C(C)=C/CCC1(C)OC21 (stereo unspecified) :: 121

## Task Using the record for O=C(N[C@@H](COc1ccc2[nH]c(=O)[nH]c2c1)c1ccccc1)c1cccn(Cc2ccc(F)c(F)c2)c1=O , state its measured residual activity.
## Result 118

## Task Using the record for Cc1ccc(-c2ccc3c(ccc4sc5c(c43)NC[C@@H](C)NC5=O)n2)cn1 , state its measured residual activity.
## Result 118

###

- target: NTRK1 (human) (UniProt P04629)
- Sequence (P04629 whole entry, looked up): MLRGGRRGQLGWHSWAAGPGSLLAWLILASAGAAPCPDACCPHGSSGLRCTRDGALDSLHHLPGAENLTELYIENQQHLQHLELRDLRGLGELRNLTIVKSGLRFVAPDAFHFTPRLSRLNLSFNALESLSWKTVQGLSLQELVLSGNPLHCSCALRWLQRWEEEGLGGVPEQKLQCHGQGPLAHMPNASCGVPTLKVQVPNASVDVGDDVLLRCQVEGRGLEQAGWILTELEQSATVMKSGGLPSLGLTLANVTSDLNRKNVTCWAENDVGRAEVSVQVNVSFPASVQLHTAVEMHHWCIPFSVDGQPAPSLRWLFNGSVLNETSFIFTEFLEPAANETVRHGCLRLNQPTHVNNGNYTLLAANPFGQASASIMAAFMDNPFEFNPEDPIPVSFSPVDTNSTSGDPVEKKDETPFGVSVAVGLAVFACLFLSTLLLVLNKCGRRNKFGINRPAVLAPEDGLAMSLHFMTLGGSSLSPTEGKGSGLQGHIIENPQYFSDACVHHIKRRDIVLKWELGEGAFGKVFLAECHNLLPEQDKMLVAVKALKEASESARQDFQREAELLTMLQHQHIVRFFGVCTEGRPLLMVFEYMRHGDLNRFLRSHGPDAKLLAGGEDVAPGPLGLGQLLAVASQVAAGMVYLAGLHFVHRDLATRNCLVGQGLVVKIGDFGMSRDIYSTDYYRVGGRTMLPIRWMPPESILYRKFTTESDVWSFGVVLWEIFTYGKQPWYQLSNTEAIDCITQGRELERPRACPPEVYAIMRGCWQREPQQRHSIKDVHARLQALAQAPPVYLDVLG
- assayProtocol: radiometric filter-binding kinase assay
- experimentalContext: compound 0.1 µM
This section presents compounds with their documented residual activity values.
Return type: number; implicit unit %.

O=C(N[C@@H](COc1ccc2[nH]c(=O)[nH]c2c1)c1ccccc1)c1cccn(Cc2ccc(F)c(F)c2)c1=O :: 113
NC1(c2ccc(-c3nc4ccn5c(=O)[nH]nc5c4cc3-c3ccccc3)cc2)CCC1 :: 107
COc1cc(O)c2c(c1)[C@H]1OC1C[C@H](O)[C@H](O)C(=O)/C=C\C[C@H](C)OC2=O (stereo partly drawn) :: 90

## Task Using the record for CC1=C(CO)C(=O)O[C@@H]([C@@H](C)[C@H]2CC[C@H]3[C@@H]4C[C@H]5O[C@]56[C@@H](O)C=CC(=O)[C@]6(C)C4CC[C@]23C)C1 (stereo partly drawn) , state its measured residual activity.
## Result 92

## Task Using the record for Cc1cccc(-c2nn(C(=S)Nc3ccccc3)cc2-c2ccnc3ccccc23)n1 , state its measured residual activity.
## Result 118

## Task Using the record for C=CC(=O)N1CCC[C@@H](n2nc(-c3ccc(Oc4ccccc4)cc3)c3c(N)ncnc32)C1 , state its measured residual activity.
## Result 64

## Task Using the record for CCCCCc1ccc(/C=C/[C@H](O)[C@@H](CO)NC)cc1 , state its measured residual activity.
## Result 103

## Task Using the record for NC(=O)c1cc2c(-c3cccc(-c4ccccc4)c3)cnc(N)c2s1 , state its measured residual activity.
## Result 92

###

- target: UniProtKB P07947
- Sequence (P07947 whole entry, looked up): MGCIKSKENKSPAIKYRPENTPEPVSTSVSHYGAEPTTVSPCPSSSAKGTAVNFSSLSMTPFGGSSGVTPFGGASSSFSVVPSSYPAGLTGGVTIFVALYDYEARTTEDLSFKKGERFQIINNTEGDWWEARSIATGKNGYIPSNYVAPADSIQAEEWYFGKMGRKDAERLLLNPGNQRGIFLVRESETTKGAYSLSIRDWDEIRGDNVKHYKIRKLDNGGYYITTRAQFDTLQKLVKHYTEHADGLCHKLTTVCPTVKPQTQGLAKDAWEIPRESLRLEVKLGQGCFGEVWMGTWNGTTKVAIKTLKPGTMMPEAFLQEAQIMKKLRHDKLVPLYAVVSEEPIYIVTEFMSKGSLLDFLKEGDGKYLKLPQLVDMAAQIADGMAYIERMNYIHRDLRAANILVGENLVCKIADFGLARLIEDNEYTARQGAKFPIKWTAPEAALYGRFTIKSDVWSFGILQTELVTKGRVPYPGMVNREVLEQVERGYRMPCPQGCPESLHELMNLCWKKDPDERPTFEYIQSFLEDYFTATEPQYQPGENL
- assayProtocol: radiometric filter-binding kinase assay
- experimentalContext: compound 0.1 µM
This section presents compounds with their documented residual activity values.
Return type: number; implicit unit %.

CN(C)C/C=C/C(=O)Nc1cccc(C(=O)Nc2ccc(Nc3nccc(-c4cccnc4)n3)cc2)c1 :: 80
Cn1c(=O)c2c(ncn2C)n(C)c1=O :: 85
CC1=C(CO)C(=O)O[C@@H]([C@@H](C)[C@H]2CC[C@H]3[C@@H]4C[C@H]5O[C@]56[C@@H](O)C=CC(=O)[C@]6(C)C4CC[C@]23C)C1 (stereo partly drawn) :: 99
CNc1nc(-c2ccc3c(N)n[nH]c3c2)cc(N2C[C@@H](C(=O)NC3CCCCC3)CC[C@H]2C)n1 :: 119
CCc1cncnc1N1CCN(Cc2nc3cc(C(F)(F)F)ccc3[nH]2)CC1 :: 98

## Task Using the record for Cc1ccc(-c2ccc3c(ccc4sc5c(c43)NC[C@@H](C)NC5=O)n2)cn1 , state its measured residual activity.
## Result 112

## Task Using the record for CCCCCc1ccc(/C=C/[C@H](O)[C@@H](CO)NC)cc1 , state its measured residual activity.
## Result 123

## Task Using the record for CCn1c(-c2nonc2N)nc2cncc(CNC3CCNCC3)c21 , state its measured residual activity.
## Result 108

###

- target: SYK (human) (UniProt P43405)
- assayProtocol: radiometric filter-binding kinase assay
- experimentalContext: compound 10.0 µM
valueKind: residual activity (%)
Return type: number; implicit unit %.

C[C@H]1CCCC(=O)CCC/C=C/c2cc(O)cc(O)c2C(=O)O1 :: 84

## Task Using the record for O=c1c(O)c(-c2ccc(O)c(O)c2)oc2cc(O)c(O)c(O)c12 , state its measured residual activity.
## Result 93

## Task Using the record for COC(=O)/C=C/C(=O)OC , state its measured residual activity.
## Result 106

###

This section presents compounds with their documented residual activity values.
- target: UniProt P53350
- Sequence (P53350 whole entry, looked up): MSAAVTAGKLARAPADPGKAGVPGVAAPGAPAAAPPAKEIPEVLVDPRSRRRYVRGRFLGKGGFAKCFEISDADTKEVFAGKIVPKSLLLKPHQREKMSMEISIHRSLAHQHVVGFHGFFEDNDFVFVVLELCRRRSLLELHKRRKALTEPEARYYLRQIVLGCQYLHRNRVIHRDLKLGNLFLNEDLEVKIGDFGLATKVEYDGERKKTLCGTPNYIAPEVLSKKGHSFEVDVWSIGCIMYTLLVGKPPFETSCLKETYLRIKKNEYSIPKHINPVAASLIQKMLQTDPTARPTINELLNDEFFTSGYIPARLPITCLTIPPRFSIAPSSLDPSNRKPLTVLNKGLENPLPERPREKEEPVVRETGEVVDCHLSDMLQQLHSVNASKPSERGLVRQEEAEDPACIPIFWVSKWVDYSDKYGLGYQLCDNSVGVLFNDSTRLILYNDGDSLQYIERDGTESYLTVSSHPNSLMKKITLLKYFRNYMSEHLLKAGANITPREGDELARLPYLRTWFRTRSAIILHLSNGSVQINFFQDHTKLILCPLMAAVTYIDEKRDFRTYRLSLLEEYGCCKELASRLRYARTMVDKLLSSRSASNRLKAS
- assayProtocol: radiometric filter-binding kinase assay
- experimentalContext: compound 1.0 µM
Return type: number; implicit unit %.

Worked cases, answers included:
O=C(NCCCNc1nc(Nc2cccc(CN3CCOCC3)c2)ncc1C1CC1)C1CCC1 :: 98
NC(=O)c1cc2c(-c3cccc(-c4ccccc4)c3)cnc(N)c2s1 :: 98
COc1ccc(N(C(=O)Nc2c(C)cccc2C)c2cc(Nc3ccc(N4CCN(C)CC4)cc3)ncn2)c(OC)c1 :: 97

## Task Using the record for O=C(O)c1ccc(-c2c[nH]c3ncc(-c4ccccc4)cc23)cc1C1CCCC1 , state its measured residual activity.
## Result 31

## Task Using the record for FC(F)(F)c1ccc(-c2ccc(Oc3cncc4sc(-c5nn[nH]n5)cc34)cc2)cc1 , state its measured residual activity.
## Result 83

## Task Using the record for NCC(=O)Nc1ccc(-n2nc(C(F)(F)F)cc2-c2ccc3c(ccc4ccccc43)c2)cc1 , state its measured residual activity.
## Result 95

###

- target: DYRK3 (human) (UniProt O43781)
- Sequence (O43781 whole entry, looked up): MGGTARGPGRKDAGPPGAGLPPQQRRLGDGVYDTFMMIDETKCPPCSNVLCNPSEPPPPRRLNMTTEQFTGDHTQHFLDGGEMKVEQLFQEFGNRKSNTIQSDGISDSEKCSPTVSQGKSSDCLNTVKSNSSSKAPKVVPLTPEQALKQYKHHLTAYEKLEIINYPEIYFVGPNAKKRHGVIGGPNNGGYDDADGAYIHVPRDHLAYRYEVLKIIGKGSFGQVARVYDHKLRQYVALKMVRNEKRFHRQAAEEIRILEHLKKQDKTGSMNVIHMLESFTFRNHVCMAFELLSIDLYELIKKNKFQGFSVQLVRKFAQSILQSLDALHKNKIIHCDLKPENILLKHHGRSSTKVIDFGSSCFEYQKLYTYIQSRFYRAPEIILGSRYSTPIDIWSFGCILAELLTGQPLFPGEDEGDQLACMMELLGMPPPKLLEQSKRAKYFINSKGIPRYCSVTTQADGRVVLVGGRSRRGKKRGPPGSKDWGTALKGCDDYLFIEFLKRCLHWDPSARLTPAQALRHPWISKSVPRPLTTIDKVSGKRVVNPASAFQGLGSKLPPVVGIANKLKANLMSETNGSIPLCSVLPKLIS
- assayProtocol: radiometric filter-binding kinase assay
- experimentalContext: compound 10.0 µM
valueKind: residual activity (%)
Return type: number; implicit unit %.

Worked cases, answers included:
CCOC(=O)c1ccc(N2NC(=O)/C(=C/c3ccc([N+](=O)[O-])o3)C2=O)cc1 :: 55
O=C1Nc2nc(-c3c(O)cccc3OCC3CC3)cc(C3CCCNC3)c2CO1 (stereo not drawn) :: 24
CN1C(=O)[C@@H](Cc2c[nH]c3ccccc23)NC1=S :: 82
Oc1ccc2ccccc2c1SSc1c(O)ccc2ccccc12 :: 74

## Task Using the record for Cc1ccc2c(c1)C(=O)[C@@]1(O)CCN(c3ccccc3)C1=N2 , state its measured residual activity.
## Result 99

## Task Using the record for COc1cc(C(=O)N2CCOCC2)c(F)cc1Nc1ncc(C(F)(F)F)c(NC2CC2)n1 , state its measured residual activity.
## Result 51

## Task Using the record for NC1(c2ccc(-c3nc4ccn5c(=O)[nH]nc5c4cc3-c3ccccc3)cc2)CCC1 , state its measured residual activity.
## Result 81

## Task Using the record for Cc1ccc(Sc2cnc(Nc3cccc(Br)n3)s2)cc1C(=O)N1CCN(C(=O)CN)CC1 , state its measured residual activity.
## Result 43

###

- target: SRC (human) (UniProt P12931)
- Sequence (P12931 whole entry, looked up): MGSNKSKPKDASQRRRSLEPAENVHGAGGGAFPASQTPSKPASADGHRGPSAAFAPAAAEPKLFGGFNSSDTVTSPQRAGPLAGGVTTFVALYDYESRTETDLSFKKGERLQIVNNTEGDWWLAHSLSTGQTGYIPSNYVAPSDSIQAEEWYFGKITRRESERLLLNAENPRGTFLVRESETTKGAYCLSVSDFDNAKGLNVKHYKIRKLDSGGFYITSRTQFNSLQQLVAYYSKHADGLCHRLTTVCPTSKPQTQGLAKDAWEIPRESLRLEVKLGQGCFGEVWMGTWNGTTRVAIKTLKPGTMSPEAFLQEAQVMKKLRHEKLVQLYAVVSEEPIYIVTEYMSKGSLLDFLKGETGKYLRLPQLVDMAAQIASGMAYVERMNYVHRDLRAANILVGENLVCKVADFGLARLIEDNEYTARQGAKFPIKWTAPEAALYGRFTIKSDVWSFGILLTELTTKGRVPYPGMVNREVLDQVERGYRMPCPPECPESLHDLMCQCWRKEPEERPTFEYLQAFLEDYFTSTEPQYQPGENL
- assayProtocol: radiometric filter-binding kinase assay
- experimentalContext: compound 0.1 µM
Cut-off 90% on residual activity, inclusive. At or above means 1.0; below means 0.0.

Some solved entries appear below for comparison.
CCc1cncnc1N1CCN(Cc2nc3cc(C(F)(F)F)ccc3[nH]2)CC1 :: 1.0
NC(=O)Nc1ccc2c(c1)/C(=C/c1cc(-c3cccnc3)c[nH]1)C(=O)N2 :: 0.0

## Task API: above_or_equal(metric=residual activity, cutoff=90%) for item CC1=C(CO)C(=O)O[C@@H]([C@@H](C)[C@H]2CC[C@H]3[C@@H]4C[C@H]5O[C@]56[C@@H](O)C=CC(=O)[C@]6(C)C4CC[C@]23C)C1 (stereo not given in full)
## Result 1.0

## Task API: above_or_equal(metric=residual activity, cutoff=90%) for item O=C(O)c1ccc(-c2c[nH]c3ncc(-c4ccccc4)cc23)cc1C1CCCC1
## Result 1.0

## Task API: above_or_equal(metric=residual activity, cutoff=90%) for item CNC(=O)C1[C@H]2O[C@@](C)([C@@H]1N)n1c3ccccc3c3c4c(c5c6ccccc6n2c5c31)C(=O)NC4 (stereo not given in full)
## Result 0.0

## Task API: above_or_equal(metric=residual activity, cutoff=90%) for item CN(C)C/C=C/C(=O)Nc1cccc(C(=O)Nc2ccc(Nc3nccc(-c4cccnc4)n3)cc2)c1
## Result 1.0

## Task API: above_or_equal(metric=residual activity, cutoff=90%) for item CCCCCc1ccc(/C=C/[C@H](O)[C@@H](CO)NC)cc1
## Result 1.0

## Task API: above_or_equal(metric=residual activity, cutoff=90%) for item Cc1cccc(-c2nn(C(=S)Nc3ccccc3)cc2-c2ccnc3ccccc23)n1
## Result 1.0

## Task API: above_or_equal(metric=residual activity, cutoff=90%) for item Cc1ccc(-c2ccc3c(ccc4sc5c(c43)NC[C@@H](C)NC5=O)n2)cn1
## Result 1.0

## Task API: above_or_equal(metric=residual activity, cutoff=90%) for item NC1(c2ccc(-c3nc4ccn5c(=O)[nH]nc5c4cc3-c3ccccc3)cc2)CCC1
## Result 1.0

###

- target: PIM3 (human)
- assayProtocol: radiometric filter-binding kinase assay
- experimentalContext: compound 10.0 µM
valueKind: residual activity (%)
Return type: number; implicit unit %.

Cc1cc(SCc2sc(-c3ccc(C(F)(F)F)cc3)nc2C)ccc1OCC(=O)O :: 72
C[C@H]1CCCC(=O)CCC/C=C/c2cc(O)cc(O)c2C(=O)O1 :: 18
CC(C)(C#N)c1ccc(N2C(=O)OCc3cnc4ccc(-c5cnc6ccccc6c5)cc4c32)cc1 :: 55
NC(=O)c1cc2c(-c3cccc(-c4ccccc4)c3)cnc(N)c2s1 :: 42
O=S(=O)(c1ccc(F)c2nonc12)N1CCN(c2ncc(C(F)(F)F)cc2Cl)CC1 :: 116
Oc1ccc2ccccc2c1SSc1c(O)ccc2ccccc12 :: 58
Cc1cccc(Nc2nn(C)c3ncnc(N)c23)c1 :: 121
NC(=O)c1ccc(-c2ccc(Oc3cncc4sc(-c5nn[nH]n5)cc34)cc2)cc1 :: 21
O=C(O)c1cc(N=Nc2ccc(S(=O)(=O)Nc3ccccn3)cc2)ccc1O :: 18
Cc1ccc(=O)n(-c2ccccc2)c1 :: 95

## Task Using the record for Cc1nc(-c2ccc(OCC(C)C)c(C#N)c2)sc1C(=O)O , state its measured residual activity.
## Result 19

## Task Using the record for O=C(Nc1ccccc1-c1cn2c(CN3CCNCC3)csc2n1)c1cnc2ccccc2n1 , state its measured residual activity.
## Result 24

## Task Using the record for CCOC(=O)c1ccc(N2NC(=O)/C(=C/c3ccc([N+](=O)[O-])o3)C2=O)cc1 , state its measured residual activity.
## Result 92

## Task Using the record for Cc1ccc(Sc2cnc(Nc3cccc(Br)n3)s2)cc1C(=O)N1CCN(C(=O)CN)CC1 , state its measured residual activity.
## Result 21

## Task Using the record for N#Cc1c(C2CCNCC2)cc(-c2c(O)cccc2OCC2CC2)nc1N , state its measured residual activity.
## Result 27

## Task Using the record for COC(=O)/C=C/C(=O)OC , state its measured residual activity.
## Result 96

All values here come from the kinase profiling compilation of Christmann-Franck et al. (2016).
